Test system: STK33
Conditions: concentration: 1 μM, replicates: in singlicate; n = 1;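 also: KINOMEscan kinase panel screen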
observation-type: %Inh (%)
Could you give me the number in %? Just the number is fine.

• Cc1ccc(NC(=O)c2ccnc(N3CCN(C)CC3)c2)cc1-c1ccc(C(=O)NCC2CC2)cc1 [GW775604] = 0
• [2H]C([2H])(c1cccc(C(F)(F)F)c1C)n1ccn2c(=O)nc(N3CCOCC3)cc12 [GSK2336394] = 0
• c1ccc(-c2n[nH]cc2-c2ccnc3ccccc23)nc1 [GW271431] = 8
• O=c1cc(N2CCOCC2)nc2n(Cc3cccc4ccccc34)ccn12 [GSK2333389] = 0
• CN1c2ccc(NCc3ccc(F)cc3)cc2-c2c(cnn2C)S1(=O)=O = 0
• CC(=O)Nc1ccc(COc2ccc(Nc3ccnc4cc(-c5ccccn5)ccc34)cc2)cc1.Cl [GW440148] = 0
• Cc1cccc(Cn2ccn3c(=O)cc(N4CCOCC4)nc23)c1 [GSK2297542] = 0
• COc1ccc(CNC(=O)NC2CCN(c3ccnc(Nc4ccc(OC)cc4)n3)C2)cc1 (centres unmarked) [GSK1379727] = 0

Could you now consider this next molecule?
Task item: Requested field: %Inh. Item: Cc1nnc(-c2ccc(C)c(-c3ccc(C(=O)Nc4ccc(NS(C)(=O)=O)cc4)cc3)c2)o1 [GW702865]
Reply: 0

* * *

Catalogue of %Inh readings, one per entry.
Tested on: TAOK2
Conditions: concentration: 1 μM, replicates: in singlicate; n = 1

These solved cases illustrate the format of a correct answer.
• COc1ccc(Nc2nccc(N3CCC(NC(=O)Nc4cccc(C(C)=O)c4)C3)n2)cc1 (stereo not drawn) [GSK1379731] = 0%
• Cc1cccc(Cn2ccn3c(=O)cc(N4CCOCC4)nc23)c1 [GSK2297542] = 5%
• COc1cc2c(cc1OC[C@@H](O)CO)ncc1c3ccc(C#N)cc3[nH]c21 = 0%

Could you now consider this next molecule?
Task item: Requested field: %Inh. Item: CSc1ccc(-c2cc3ncnc(SCC(=O)O)c3s2)cc1
Reply: 0%

* * *

Test system: EPHA8
Conditions: concentration: 1 μM, replicates: in singlicate; n = 1
Catalogue of %Inh readings, one per entry.
Could you give me the number in %? Just the number is fine.

These solved cases illustrate the format of a correct answer.
- CC(=O)Nc1ccc(COc2ccc(Nc3ccnc4cc(-c5ccccn5)ccc34)cc2)cc1.Cl [GW440148]: 17
- COc1cc2c(cc1OCCN1CCN(C)CC1)ncc1c3ccc(C#N)cc3[nH]c21: 0
- Fc1ccc(-c2nn3c(OCC(F)(F)F)cccc3c2-c2ccncc2)cc1 [GW514784]: 13

Task item: API: value(readout= %Inh, system= EPHA8, query= Cc1nnc(-c2ccc3occ(-c4ccc(C(C)O)cc4)c3c2)o1 (stereo not drawn) )
Reply: 0

Task item: API: value(readout= %Inh, system= EPHA8, query= [2H]C([2H])(c1cccc(C(F)(F)F)c1C)n1ccn2c(=O)nc(N3CCOCC3)cc12 [GSK2336394] )
Reply: 19

Task item: API: value(readout= %Inh, system= EPHA8, query= CCn1cnc2c(N)ncnc21 [GW345098] )
Reply: 1

Task item: API: value(readout= %Inh, system= EPHA8, query= Cc1cn2c(=O)cc(N3CCOCC3)nc2n1Cc1cccc(Cl)c1Cl [GSK2334006] )
Reply: 21

Task item: API: value(readout= %Inh, system= EPHA8, query= COc1cc(Nc2nccc(N3CCC(NC(=O)c4cccc(NC(C)=O)c4)C3)n2)cc(OC)c1OC (stereo not drawn) [GSK1379754] )
Reply: 26
